B1: SH3BP2 peptide 408-423 (SH3 domain-binding protein 2), 16-mer library wild type / TNKS ANK (TNKS 12 ANK repeats, residues 174-649) (parent)
chain 1: PQLPHLQRSPPDGQSF
chain 2: TGVPAVSGALRELLEACRNGDVSRVKRLVDAANVNAKDMAGRKSSPLHFAAGFGRKDVVEHLLQMGANVHARDDGGLIPLHNACSFGHAEVVSLLLCQGADPNARDNWNYTPLHEAAIKGKIDVCIVLLQHGADPNIRNTDGKSALDLADPSAKAVLTGEYKKDELLEAARSGNEEKLMALLTPLNVNCHASDGRKSTPLHLAAGYNRVRIVQLLLQHGADVHAKDKGGLVPLHNACSYGHYEVTELLLKHGACVNAMDLWQFTPLHEAASKNRVEVCSLLLSHGADPTLVNCHGKSAVDMAPTPELRERLTYEFKGHSLLQAAREADLAKVKKTLALEIINFKQPQSHETALHCAVASLHPKRKQVTELLLRKGANVNEKNKDFMTPLHVAAERAHNDVMEVLHKHGAKMNALDTLGQTALHRAALAGHLQTCRLLLSYGSDPSIISLQGFTAAQMGNEAVQQILSESTPIRTSD

# Variants of: B1
# Assay protocol: proteomic peptide phage display deep mutational scan (ProP-PD DMS): M13 P8 16-mer library selected against immobilised GST-tagged bait for four days (rounds), NGS of the eluted pools per day and pseudo-replica
# Experimental context: with TNKS ANK (TNKS 12 ANK repeats, residues 174-649); bait immobilised on MaxiSorp plates (10 µg), library pre-cleared on GST, 2 h binding at 4 °C, five washes; one round per day, days 1-4; value from days 2 and 3; keep out of graded; scale: average fractional NGS count over selection days 2 and 3
Readout label: screen value
Give the value as a plain number.

Reference set, count: 8
• chain 1 PQLPNLQRSPPDGQSF [chain 1 H5N] = 3.1e-05
• chain 1 PQLPHLQFSPPDGQSF [chain 1 R8F] = 0
• chain 1 PQLPHLQASPPDGQSF [chain 1 R8A] = 0
• chain 1 PQLPHLQRSPPDWQSF [chain 1 G13W] = 0
• chain 1 PQLPLLQRSPPDGQSF [chain 1 H5L] = 0.000101
• chain 1 PQLPHLQHSPPDGQSF [chain 1 R8H] = 0
• chain 1 PQLPHLQRSPPDQQSF [chain 1 G13Q] = 0
• chain 1 PQLPHLQRSPFDGQSF [chain 1 P11F] = 3.04e-05

Req: Which value of screen value has been reported for chain 1 PQLPHLQRSPPYGQSF [chain 1 D12Y] in the records?
Resp: 3.32e-05

Req: Which value of screen value has been reported for chain 1 PQLPHLQRSMPDGQSF [chain 1 P10M] in the records?
Resp: 0.000103

Req: Which value of screen value has been reported for chain 1 PQLPHLQRSPHDGQSF [chain 1 P11H] in the records?
Resp: 0

Req: Which value of screen value has been reported for chain 1 PQLPDLQRSPPDGQSF [chain 1 H5D] in the records?
Resp: 5.12e-05

Req: Which value of screen value has been reported for chain 1 PQLPHIQRSPPDGQSF [chain 1 L6I] in the records?
Resp: 6.25e-05

Req: Which value of screen value has been reported for chain 1 PQLFHLQRSPPDGQSF [chain 1 P4F] in the records?
Resp: 5.23e-05

Cited source for all entries: paper PMC12102759
